Target: human IL4Rα expressed on HEK293T-IL4Rα-STAT6-STAT6LUC-LB2 cells (human, UniProt P24394 26-825)
Experiment: cell-based or functional assay
assayEndpoint: Inhibition on IL13 induced STAT6 phosphorylation (IC50, nM)

binder	recordedMeasurement
huC2C1A1A1-V15 (antibody, human IgG4, V domains shown, Humanized, human IgG4/kappa) VH: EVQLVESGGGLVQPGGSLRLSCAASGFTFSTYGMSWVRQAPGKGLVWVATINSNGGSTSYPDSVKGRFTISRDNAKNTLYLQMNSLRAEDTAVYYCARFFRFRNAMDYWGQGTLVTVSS VL: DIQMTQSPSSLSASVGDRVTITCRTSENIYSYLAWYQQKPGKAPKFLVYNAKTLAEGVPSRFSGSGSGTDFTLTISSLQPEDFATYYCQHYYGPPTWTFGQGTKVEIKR	0.6
huB8G11F2B7G5E8-V4 (antibody, human IgG4 S228P, kappa, V domains shown, Humanized, human IgG4/kappa; also called huBSG11F2B7G5E8-V4) VH: EVQLVQSGAEVKKPGATVKISCKASGFNIKDTYMHWVKQAPGKGLEWMGRIDPTNGYTIYASKFQGKATITADTSSNTAYMELSSLRSEDTAVYHCVSRRPWFAYWGQGTLVTVSS VL: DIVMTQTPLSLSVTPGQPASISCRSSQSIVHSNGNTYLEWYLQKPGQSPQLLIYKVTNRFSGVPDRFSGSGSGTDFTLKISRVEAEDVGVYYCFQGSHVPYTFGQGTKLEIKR	0.81
chimeric antibody B8G11F2B7G5E8 (antibody, human IgG4 S228P, kappa, V domains shown, Mouse variable domains on human IgG4/kappa; also called Chimeric B8G11F2B7G5E8; chB8G11F2B7G5E8) VH: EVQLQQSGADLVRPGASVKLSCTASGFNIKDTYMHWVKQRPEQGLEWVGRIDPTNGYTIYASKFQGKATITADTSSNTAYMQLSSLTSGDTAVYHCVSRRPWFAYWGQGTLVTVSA VL: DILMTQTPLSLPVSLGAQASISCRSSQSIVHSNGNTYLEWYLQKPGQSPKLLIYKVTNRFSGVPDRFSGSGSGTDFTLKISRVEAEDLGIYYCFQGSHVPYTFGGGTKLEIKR	0.5
huB8G11F2B7G5E8-V2 (antibody, human IgG4 S228P, kappa, V domains shown, Humanized, human IgG4/kappa; also called huBSG11F2B7G5E8-V2) VH: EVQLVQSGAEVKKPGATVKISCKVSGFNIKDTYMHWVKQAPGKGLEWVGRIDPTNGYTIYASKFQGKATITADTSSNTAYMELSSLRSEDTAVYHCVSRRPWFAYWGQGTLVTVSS VL: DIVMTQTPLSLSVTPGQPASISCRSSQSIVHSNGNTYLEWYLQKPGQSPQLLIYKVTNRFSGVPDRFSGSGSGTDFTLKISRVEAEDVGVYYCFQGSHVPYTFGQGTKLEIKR	0.63
